Assignment: determine reported amount of peptide remaining after 10 days of incubation at 70°C for the given molecules.
- Procedure details: Heating experiments: succinimide formation (dehydration) from Asp isomer peptides
- Format: physicochemical
- Experimental parameters: chemical stability, PBS pH 7.4, 70°C, RP-HPLC peak areas, 215 nm
Where a SMILES comes first, the peptide text is derived from it.
Answers are plain numbers, in %.

Form field amount of peptide remaining after 10 days of incubation at 70°C, entry CC[C@H](C)[C@H](NC(=O)CNC(=O)[C@H](CO)NC(=O)[C@@H](CC(=O)O)NC(=O)[C@H](CC(C)C)NC(=O)[C@@H](NC(=O)[C@@H](N)[C@@H](C)O)C(C)C)C(=O)N[C@@H](CO)C(=O)N[C@@H](CCC(=O)O)C(=O)N[C@H](C(=O)N[C@@H](CCCNC(=N)N)C(=O)O)C(C)C [T6-Dα] (HELM PEPTIDE1{T.V.L.[dD].S.G.I.S.E.V.R}$$$$V2.0) : 40

Could you now consider this next molecule?
Per the record, CC[C@H](C)[C@H](NC(=O)CNC(=O)[C@H](CO)NC(=O)[C@H](CC(=O)O)NC(=O)[C@H](CC(C)C)NC(=O)[C@@H](NC(=O)[C@@H](N)[C@@H](C)O)C(C)C)C(=O)N[C@@H](CO)C(=O)N[C@@H](CCC(=O)O)C(=O)N[C@H](C(=O)N[C@@H](CCCNC(=N)N)C(=O)O)C(C)C [T6-Lα] (H-TVLDSGISEVR-OH) has amount of peptide remaining after 10 days of incubation at 70°C of 30
